Tested on: SR leukemia
Assay: NCI-60 one-dose screen, 48 h
Conditions: 10 µM
Experimental: Growth inhibition of the SR human tumor cell line is measured as a screen for anti-cancer activity. Cells are grown in 96 well plates and exposed to the test compound for 48 hours. Compounds are tested at a single concentration, which is 10^-5 M for most compounds. The reported endpoint is percent growth (GI% or GIPRCNT), where numbers from 0 - 100% represent growth inhibition, and numbers from -100% - 0 represent cell death. For example, a value of 40 represents 60% growth inhibition. […]
The panel holds about 83,000 compounds, 20% with a hit somewhere; the sample as a whole holds those more often. Calls of active or inactive are those of the source. Rule for the calls: active = growth percent below 10; inactive = the rest.
Would you mind answering with one of these outcomes? YES (active), NO (inactive)

Here's what some known entries look like.
>  <compound>
CSc1cc(SC)ncn1

>  <category>
NO

$$$$
>  <compound>
O=C1C(c2ccccc2)C2C=CC(C2)N1O (stereo unspecified)

>  <category>
NO

$$$$
>  <compound>
CNc1ncc(-c2ccc(C(F)(F)F)cc2)c(NC2CCCCCC2)n1

>  <category>
NO

$$$$
>  <compound>
O=C(O)c1ccc(Cl)cc1Nc1ccc(F)cc1

>  <category>
NO

$$$$
>  <compound>
COc1ccc(-c2nn(-c3cccc(NC(=O)Nc4ccc(Cl)c(C(F)(F)F)c4)c3)cc2-c2ccncc2)cc1Cl

>  <category>
YES

$$$$

Could you now consider this next compound?
Task: Entry CCCC(F)C(=O)O (stereo unspecified) : call = ?
Result: NO

* * *

test system: COLO 205 colon; assay: NCI-60 one-dose screen, 48 h; conditions: 10 µM
This is part of a sample that, as a whole, favours compounds with a hit. Of some 83,000 tested, about 20% had one in any assay. The source made the active and inactive calls. Rule for the calls: active = growth percent below 10; inactive = the rest.
Would you mind answering with one of these outcomes? 1 (yes) for active, 0 (no) for inactive

>  <smiles.input>
O=C1Nc2ccc(Cl)cc2/C1=C\c1c(-c2ccc(Cl)cc2)nc2sc(C3CC3)nn12

>  <category>
0 (no)

$$$$
>  <smiles.input>
O=C(C[P+](c1ccccc1)(c1ccccc1)c1ccccc1)C[P+](c1ccccc1)(c1ccccc1)c1ccccc1

>  <category>
1 (yes)

$$$$
>  <smiles.input>
O=C(CCCCCCC(=O)Nc1cccnc1)NO

>  <category>
0 (no)

$$$$
>  <smiles.input>
O=C(/C=C/c1cc2ccccc2[nH]c1=O)c1ccc2c(c1)OCO2

>  <category>
0 (no)

$$$$

Task: Entry O=C1/C(=C\c2ccccc2)CN(C(=O)c2ccccc2F)C/C1=C\c1ccccc1 : call = ?
Result: 0 (no)

Task: Do the same for COc1cc(CNc2ccccc2C(=O)N2CCN(C(=O)c3cc(-c4cc(OC)c(OC)c(OC)c4)n4nc(-c5ccccc5)cc4n3)CC2)cc(OC)c1OC please
Result: 0 (no)

Task: Do the same for COc1cc(Nc2ccnc(NCCCNc3ccnc4cc(Cl)ccc34)n2)cc(OC)c1 please
Result: 1 (yes)

Task: Do the same for O=c1[nH]c(-c2ccc(Cl)cc2)nc2sc3c(c12)CCCC3 please
Result: 0 (no)

Task: Do the same for CCN(CC)CCSCCCNc1c2ccc(Cl)cc2nc2ccc(OC)cc12 please
Result: 1 (yes)

Task: Do the same for COc1cc(OC)cc(-c2cncn2-c2ccc(-c3nc4cc(OC)cc(OC)c4s3)cc2)c1 please
Result: 0 (no)

Task: Do the same for COc1cc2nc(Nc3cccc(C(=O)O)c3)nc(N)c2cc1OC please
Result: 0 (no)

Task: Do the same for c1ccc(CO[C@H]2CO[C@H]3[C@@H]2OC[C@H]3OCc2ccccc2)cc1 please
Result: 0 (no)

Task: Do the same for NC(=O)CC1(c2ccccc2)CCCCC1 please
Result: 0 (no)

Task: Do the same for Cc1cc(N(CCCNc2ccnc3cc(Cl)ccc23)Cc2cccs2)nc(Cl)n1 please
Result: 1 (yes)

Task: Do the same for CC1(C)Cc2c(sc3ncn4nc(-c5ccc(O)cc5)nc4c23)CO1 please
Result: 0 (no)

* * *

tested on: IGROV1 ovarian; assay: NCI-60 one-dose screen, 48 h; settings: 10 µM
About 83,000 compounds went through this panel and 20% of them were active in at least one assay; those are over-represented in the sample as a whole. Activity calls are given as the source filed them. Rule for the calls: active = growth percent below 10; inactive = the rest.
Would you mind answering with one of these outcomes? 1 (active), -1 (inactive)

Here's what some known entries look like.
>  <molecule>
N=C(N)c1ccc(-c2ccc(-c3cccs3)s2)s1

>  <category>
1

$$$$
>  <molecule>
CCOC(=O)C(CSC(c1ccccc1)(c1ccccc1)c1ccccc1)NC(=O)C(CSC(c1ccccc1)(c1ccccc1)c1ccccc1)NC(c1ccccc1)(c1ccccc1)c1ccccc1 (centres undefined)

>  <category>
-1

$$$$
>  <molecule>
CC(=O)N1C/C(=C/c2ccc(Cl)cc2)C(=O)/C(=C/c2ccc(Cl)cc2)C1

>  <category>
1

$$$$

Task: Entry CCOC(=O)N1C=CC2C=CC1C1C=CC=CC2N1C(=O)OCC (centres undefined) : call = ?
Result: -1

* * *

As shown below, each of these compounds has a reported growth value.
test system: K-562 leukemia; experiment: NCI-60 one-dose screen, 48 h (100 = growth as untreated, 0 = no growth, -100 = all killed); conditions: 10 µM
The panel holds about 83,000 compounds, 20% with a hit somewhere; the sample as a whole holds those more often.
Response body: numeric value in %, unit text excluded.

>  <compound>
CCCCCCCCCCCCCCCCN(C(C)c1ccccc1)S(=O)(=O)c1ccc(OC)c(N)c1 (stereo not given)

>  <experimental.system>
K-562 leukemia

>  <growth / %>
89.9

$$$$
>  <compound>
Cn1c([N+](=O)[O-])cnc1/C=C1\Oc2ccccc2C1=O

>  <experimental.system>
K-562 leukemia

>  <growth / %>
3.53

$$$$
>  <compound>
COc1cc2nc(Nc3cccc(C(=O)O)c3)nc(N)c2cc1OC

>  <experimental.system>
K-562 leukemia

>  <growth / %>
108

$$$$
>  <compound>
C(CCCC1=NCCO1)CCCC1=NCCO1

>  <experimental.system>
K-562 leukemia

>  <growth / %>
110

$$$$
>  <compound>
CC(C)=CCc1cc(O)cc2c1OC(C=C(C)C)C1=C2C(=O)C2=C(C1=O)S(=O)(=O)CCN2 (stereo not given)

>  <experimental.system>
K-562 leukemia

>  <growth / %>
5.77

$$$$
>  <compound>
CC/C(=N\N=C(/CC)c1ccc(Br)cc1)c1ccc(Br)cc1

>  <experimental.system>
K-562 leukemia

>  <growth / %>
109

$$$$

Task: Missing value: growth, K-562 leukemia, entry CCOC(=O)N1C/C(=C/c2ccc(F)cc2)C(=O)/C(=C/c2ccc(F)cc2)C1 . Fill in?
Result: 3.36

Task: Do the same for CCN(CC)CCN1CC(=O)Nc2cc(Cl)ccc21 please
Result: 120

Task: Do the same for Nc1ccn(C2CC(O)C(CO)O2)c(=O)n1 (stereo not given) please
Result: 99.5

Task: Do the same for CN(CCc1ccccn1)c1ccccc1 please
Result: 95.2

* * *

tested on: MOLT-4 leukemia; assay: NCI-60 one-dose screen, 48 h (100 = growth as untreated, 0 = no growth, -100 = all killed); conditions: 10 µM
About 83,000 compounds went through this panel and 20% of them were active in at least one assay; those are over-represented in the sample as a whole.
endpoint.name: growth (%)
Response body: numeric value in %, unit text excluded.

See these solved cases before continuing.
>  <molecule>
COc1ccc(-c2nc(-c3nc4cc(Cl)c(F)cc4[nH]3)c3ccccn23)cc1

>  <result.unit>
%

>  <test.value>
43.4

$$$$
>  <molecule>
O=C1/C(=C\c2ccc(Br)cc2)CN(C(=O)c2ccccc2F)C/C1=C\c1ccc(Br)cc1

>  <result.unit>
%

>  <test.value>
4.49

$$$$
>  <molecule>
CC(C)=CCc1cc(O)cc2c1OC(C=C(C)C)C1=C2C(=O)C2=C(NCCS2(=O)=O)C1=O (stereo unspecified)

>  <result.unit>
%

>  <test.value>
-34.5

$$$$
>  <molecule>
CC(=O)N(C)c1ccc(Nc2ccc(Nc3ccc(N(C)C(C)=O)cc3)c3c2C(=O)c2ccccc2C3=O)cc1

>  <result.unit>
%

>  <test.value>
56.8

$$$$
>  <molecule>
O=C(c1cccs1)c1ccccc1Cc1ccccc1

>  <result.unit>
%

>  <test.value>
92.5

$$$$
>  <molecule>
NC(=O)c1ccc(-c2cccc3c(=O)nc(N4CCOCC4)oc23)cc1

>  <result.unit>
%

>  <test.value>
103

$$$$

Task: Field request: growth | item: CCN(CCCCCCCCCCN1CC(=O)N(CCCCCCCCCCN(CC)Cc2ccccc2OC)CC1=O)Cc1ccccc1OC
Result: -32.7

Task: Do the same for CC1(C)OC2=C(CC1Br)C(=O)C(=O)c1ccccc12 (stereo unspecified) please
Result: -25.6

Task: Do the same for N=C(N)c1ccc(-c2ccc(-c3cccs3)s2)cc1 please
Result: -48.6
